The values you see were collected from paper PMC8471380.

molecular target: ifenprodil-binding site of NMDA receptor (NR2B subunit) (Rattus norvegicus, UniProt P35439+Q00960); experiment: Radioligand binding assay, [3H]ifenprodil displacement
Sequence (Q00960 27-1482, other chains not shown): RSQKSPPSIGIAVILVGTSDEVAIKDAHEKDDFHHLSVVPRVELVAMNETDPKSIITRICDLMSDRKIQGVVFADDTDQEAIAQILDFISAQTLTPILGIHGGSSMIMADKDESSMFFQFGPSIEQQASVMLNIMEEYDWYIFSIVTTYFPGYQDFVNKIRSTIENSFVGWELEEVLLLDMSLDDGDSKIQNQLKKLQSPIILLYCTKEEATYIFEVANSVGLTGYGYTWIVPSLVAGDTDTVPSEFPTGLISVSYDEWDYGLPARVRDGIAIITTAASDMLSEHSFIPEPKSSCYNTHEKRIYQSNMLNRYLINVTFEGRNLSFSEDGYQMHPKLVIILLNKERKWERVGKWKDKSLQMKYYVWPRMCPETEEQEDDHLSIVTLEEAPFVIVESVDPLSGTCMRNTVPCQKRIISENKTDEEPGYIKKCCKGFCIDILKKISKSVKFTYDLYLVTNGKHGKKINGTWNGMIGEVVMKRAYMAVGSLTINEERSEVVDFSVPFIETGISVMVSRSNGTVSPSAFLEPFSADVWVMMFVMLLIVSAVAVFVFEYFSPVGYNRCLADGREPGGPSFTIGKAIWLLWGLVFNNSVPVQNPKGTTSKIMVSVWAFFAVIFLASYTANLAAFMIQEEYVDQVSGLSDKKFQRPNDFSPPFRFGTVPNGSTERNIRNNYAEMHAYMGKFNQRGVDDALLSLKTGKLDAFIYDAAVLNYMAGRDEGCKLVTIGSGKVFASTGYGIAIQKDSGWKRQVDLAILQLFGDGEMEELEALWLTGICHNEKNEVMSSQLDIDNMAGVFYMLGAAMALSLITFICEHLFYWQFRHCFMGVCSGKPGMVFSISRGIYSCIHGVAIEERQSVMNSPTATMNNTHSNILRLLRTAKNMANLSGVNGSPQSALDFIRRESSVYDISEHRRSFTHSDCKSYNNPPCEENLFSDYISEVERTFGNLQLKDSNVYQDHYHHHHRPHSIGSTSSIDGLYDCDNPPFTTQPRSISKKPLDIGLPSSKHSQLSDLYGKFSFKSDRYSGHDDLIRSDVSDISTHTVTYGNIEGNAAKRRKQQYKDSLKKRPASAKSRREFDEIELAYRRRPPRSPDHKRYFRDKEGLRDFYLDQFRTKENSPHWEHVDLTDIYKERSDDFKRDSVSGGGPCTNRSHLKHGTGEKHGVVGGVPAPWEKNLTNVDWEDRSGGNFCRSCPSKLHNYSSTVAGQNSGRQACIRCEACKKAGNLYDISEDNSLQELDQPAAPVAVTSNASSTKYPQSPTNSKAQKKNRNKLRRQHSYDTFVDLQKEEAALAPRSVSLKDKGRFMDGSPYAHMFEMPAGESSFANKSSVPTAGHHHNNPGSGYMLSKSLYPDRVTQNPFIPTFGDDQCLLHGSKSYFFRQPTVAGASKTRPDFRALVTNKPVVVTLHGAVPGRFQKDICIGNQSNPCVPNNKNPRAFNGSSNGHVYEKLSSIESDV
Listed below: log10(Ki) values for each entry.
measured quantity: log10(Ki) (log10 of the value in µM)

# compound, measured result
records = [
    ("CN1CCc2c(c3ccccc3n2CCNC23CC4CC(CC(C4)C2)C3)C1.Cl.Cl", 0.64),
    ("CN1CCc2c(c3ccccc3n2CC(=O)NC23CC4CC(CC(C4)C2)C3)C1.Cl", 1.90),
    ("CN1CCc2c(c3cc(F)ccc3n2CC(=O)NC23CC4CC(C)(CC(C)(C4)C2)C3)C1.Cl", 2.04),
    ("Cc1ccc2c(c1)c1c(n2CC(=O)NC23CC4CC(C)(CC(C)(C4)C2)C3)CCN(C)C1.Cl", 1.95),
    ("Cc1ccc2c(c1)c1c(n2CC(=O)NC23CC4CC(CC(C4)C2)C3)CCN(C)C1.Cl", 2.02),
    ("CN1CCc2c(c3ccccc3n2CC(=O)NC23CC4CC(C)(CC(C)(C4)C2)C3)C1", 2.05),
    ("CN1CCc2c(c3cc(F)ccc3n2CCNC23CC4CC(C)(CC(C)(C4)C2)C3)C1.Cl.Cl", 0.49),
    ("Cc1ccc2c(c1)c1c(n2CCc2ccc(C)nc2)CCN(C)C1 [dimebon, reference compound]", 1.89),
]
